Test system: NCI-H2087
PROCEDURE SUMMARY: relative viability (nuclei count vs DMSO), 5 days (fraction); higher = more cells survive
EXPERIMENTAL CONDITIONS: first compound 1.265 µM
READOUT LABEL: relative viability
Lab note: jot the number down without any unit.

Asked: Observed relative viability on NCI-H2087 for Clc1ccc(Nc2nnc(Cc3ccncc3)c3ccccc23)cc1 [Vatalanib] + Cc1nc(NC(=O)N2CCC[C@H]2C(N)=O)sc1-c1ccnc(C(C)(C)C(F)(F)F)c1 [Alpelisib] (partner 2 µM) , please.
Given back: 0.964

Asked: Also Clc1ccc(Nc2nnc(Cc3ccncc3)c3ccccc23)cc1 [Vatalanib] + Nc1ncn([C@H]2C[C@H](O)[C@@H](CO)O2)c(=O)n1 [Decitabine] (partner 2 µM) ?
Given back: 0.298

Asked: Also Clc1ccc(Nc2nnc(Cc3ccncc3)c3ccccc23)cc1 [Vatalanib] + C[C@@H](Oc1cc(-c2cnn(C3CCNCC3)c2)cnc1N)c1c(Cl)ccc(F)c1Cl [Crizotinib] (partner 1 µM) ?
Given back: 0.826

Asked: Also Clc1ccc(Nc2nnc(Cc3ccncc3)c3ccccc23)cc1 [Vatalanib] + O=C(CCCCCCC(=O)Nc1ccccc1)NO [Vorinostat] (partner 1 µM) ?
Given back: 0.701

Asked: Also COc1cc(N2CCC(C(N)=O)CC2)ccc1Nc1nc(N)c(Cl)c(Nc2ccccc2S(=O)(=O)C(C)C)n1 [HG-5-88-01] + C[C@@H](Oc1cc(-c2cnn(C3CCNCC3)c2)cnc1N)c1c(Cl)ccc(F)c1Cl [Crizotinib] (partner 1 µM) ?
Given back: 0.825

Asked: Also COc1cc(N2CCC(C(N)=O)CC2)ccc1Nc1nc(N)c(Cl)c(Nc2ccccc2S(=O)(=O)C(C)C)n1 [HG-5-88-01] + CC1(C)CCC(c2ccc(Cl)cc2)=C(CN2CCN(c3ccc(C(=O)NS(=O)(=O)c4ccc(N[C@H](CCN5CCOCC5)CSc5ccccc5)c(S(=O)(=O)C(F)(F)F)c4)cc3)CC2)C1 [Navitoclax] (partner 0.5 µM) ?
Given back: 0.971

Asked: Also COc1cc(N2CCC(C(N)=O)CC2)ccc1Nc1nc(N)c(Cl)c(Nc2ccccc2S(=O)(=O)C(C)C)n1 [HG-5-88-01] + Nc1nc2[nH]cc(CCc3ccc(C(=O)N[C@@H](CCC(=O)O)C(=O)O)cc3)c2c(=O)[nH]1 [Pemetrexed] (partner 0.2 µM) ?
Given back: 0.651

Asked: Also Clc1ccc(Nc2nnc(Cc3ccncc3)c3ccccc23)cc1 [Vatalanib] + COc1cccc2cc(-c3nc([C@H]4CC[C@H](C(=O)O)CC4)n4ncnc(N)c34)[nH]c12 [OSI-027] (partner 0.5 µM) ?
Given back: 0.548

Asked: Also COc1cc(N2CCC(C(N)=O)CC2)ccc1Nc1nc(N)c(Cl)c(Nc2ccccc2S(=O)(=O)C(C)C)n1 [HG-5-88-01] + CC(=O)c1c(C)c2cnc(Nc3ccc(N4CCNCC4)cn3)nc2n(C2CCCC2)c1=O [Palbociclib] (partner 0.5 µM) ?
Given back: 0.207

Asked: Also COc1cc(N2CCC(C(N)=O)CC2)ccc1Nc1nc(N)c(Cl)c(Nc2ccccc2S(=O)(=O)C(C)C)n1 [HG-5-88-01] + Cc1nc(NC(=O)N2CCC[C@H]2C(N)=O)sc1-c1ccnc(C(C)(C)C(F)(F)F)c1 [Alpelisib] (partner 2 µM) ?
Given back: 1.04

----------
Test system: NCI-H1703
PROCEDURE SUMMARY: relative viability (nuclei count vs DMSO), 5 days (fraction); higher = more cells survive
EXPERIMENTAL CONDITIONS: first compound 4 µM
READOUT LABEL: relative viability
Lab note: jot the number down without any unit.

Asked: Which relative viability reading was recorded for the compound C[C@@H]1CN(CC(=O)Nc2ccc3c(c2)Cc2cccc(-c4cc(=O)cc(N5CCOCC5)o4)c2S3)C[C@H](C)O1 + C[C@]1(O)C[C@@H](c2nc(-c3ccc4ccc(-c5ccccc5)nc4c3)c3c(N)nccn32)C1 [Linsitinib] (partner 1 µM) ?
Given back: 0.492

Asked: Also COc1cc(N2CCC(C(N)=O)CC2)ccc1Nc1nc(N)c(Cl)c(Nc2ccccc2S(=O)(=O)C(C)C)n1 [HG-5-88-01] + C[C@@H](Oc1cc(-c2cnn(C3CCNCC3)c2)cnc1N)c1c(Cl)ccc(F)c1Cl [Crizotinib] (partner 1 µM) ?
Given back: 0.175

Asked: Also C[C@@H]1CN(CC(=O)Nc2ccc3c(c2)Cc2cccc(-c4cc(=O)cc(N5CCOCC5)o4)c2S3)C[C@H](C)O1 + CS(=O)(=O)CCNCc1ccc(-c2ccc3ncnc(Nc4ccc(OCc5cccc(F)c5)c(Cl)c4)c3c2)o1 [Lapatinib] (partner 2 µM) ?
Given back: 0.688

----------
Test system: SW 900
PROCEDURE SUMMARY: relative viability (nuclei count vs DMSO), 5 days (fraction); higher = more cells survive
EXPERIMENTAL CONDITIONS: first compound 0.4 µM
READOUT LABEL: relative viability
Lab note: jot the number down without any unit.

Asked: Which relative viability reading was recorded for the molecule COc1cc(N2CCC(C(N)=O)CC2)ccc1Nc1nc(N)c(Cl)c(Nc2ccccc2S(=O)(=O)C(C)C)n1 [HG-5-88-01] + CC(=O)c1c(C)c2cnc(Nc3ccc(N4CCNCC4)cn3)nc2n(C2CCCC2)c1=O [Palbociclib] (partner 0.5 µM) ?
Given back: 0.473

Asked: Also COc1cc(N2CCC(C(N)=O)CC2)ccc1Nc1nc(N)c(Cl)c(Nc2ccccc2S(=O)(=O)C(C)C)n1 [HG-5-88-01] + N=C(N)NC(=N)NCCc1ccccc1 [Phenformin] (partner 250 µM) ?
Given back: 0.622

Asked: Also COc1cc(N2CCC(C(N)=O)CC2)ccc1Nc1nc(N)c(Cl)c(Nc2ccccc2S(=O)(=O)C(C)C)n1 [HG-5-88-01] + O=C(CCCCCCC(=O)Nc1ccccc1)NO [Vorinostat] (partner 1 µM) ?
Given back: 0.525

Asked: Also COc1cc(N2CCC(C(N)=O)CC2)ccc1Nc1nc(N)c(Cl)c(Nc2ccccc2S(=O)(=O)C(C)C)n1 [HG-5-88-01] + CCNC(=O)c1noc(-c2cc(C(C)C)c(O)cc2O)c1-c1ccc(CN2CCOCC2)cc1 [Luminespib] (partner 0.01 µM) ?
Given back: 0.185

Asked: Also C[C@@H]1CN(CC(=O)Nc2ccc3c(c2)Cc2cccc(-c4cc(=O)cc(N5CCOCC5)o4)c2S3)C[C@H](C)O1 + Cc1cc(Nc2cc(N3CCN(C)CC3)nc(Sc3ccc(NC(=O)C4CC4)cc3)n2)n[nH]1 [Tozasertib] (partner 0.1 µM) ?
Given back: 0.476

Asked: Also COc1cc(N2CCC(C(N)=O)CC2)ccc1Nc1nc(N)c(Cl)c(Nc2ccccc2S(=O)(=O)C(C)C)n1 [HG-5-88-01] + Cc1cc(Nc2cc(N3CCN(C)CC3)nc(Sc3ccc(NC(=O)C4CC4)cc3)n2)n[nH]1 [Tozasertib] (partner 0.1 µM) ?
Given back: 0.652

Asked: Also C[C@@H]1CN(CC(=O)Nc2ccc3c(c2)Cc2cccc(-c4cc(=O)cc(N5CCOCC5)o4)c2S3)C[C@H](C)O1 + O=C(c1cc(Cc2n[nH]c(=O)c3ccccc23)ccc1F)N1CCN(C(=O)C2CC2)CC1 [Olaparib] (partner 8 µM) ?
Given back: 0.815

Asked: Also COc1cc(N2CCC(C(N)=O)CC2)ccc1Nc1nc(N)c(Cl)c(Nc2ccccc2S(=O)(=O)C(C)C)n1 [HG-5-88-01] + COc1cc2c(Oc3ccc(NC(=O)C4(C(=O)Nc5ccc(F)cc5)CC4)cc3F)ccnc2cc1OCCCN1CCOCC1 [Foretinib] (partner 0.25 µM) ?
Given back: 0.926

----------
Test system: NCI-H1648
PROCEDURE SUMMARY: relative viability (nuclei count vs DMSO), 5 days (fraction); higher = more cells survive
EXPERIMENTAL CONDITIONS: first compound 8 µM
I'd be grateful if you could share measured relative viability for these entries.
Lab note: jot the number down without any unit.

Asked: Which relative viability reading was recorded for the compound CCCCCCCCCCCC1=C(O)C(=O)C=C(O)C1=O [Embelin] + COc1cccc2cc(-c3nc([C@H]4CC[C@H](C(=O)O)CC4)n4ncnc(N)c34)[nH]c12 [OSI-027] (partner 0.5 µM) ?
Given back: 0.278

Asked: Also CCCCCCCCCCCC1=C(O)C(=O)C=C(O)C1=O [Embelin] + CC(=O)Nc1cccc(-n2c(=O)n(C3CC3)c(=O)c3c(Nc4ccc(I)cc4F)n(C)c(=O)c(C)c32)c1 [Trametinib] (partner 0.02 µM) ?
Given back: 0.596

Asked: Also CCCCCCCCCCCC1=C(O)C(=O)C=C(O)C1=O [Embelin] + CC(=O)c1c(C)c2cnc(Nc3ccc(N4CCNCC4)cn3)nc2n(C2CCCC2)c1=O [Palbociclib] (partner 0.5 µM) ?
Given back: 0.297

Asked: Also CCCCCCCCCCCC1=C(O)C(=O)C=C(O)C1=O [Embelin] + O=C(CCCCCCC(=O)Nc1ccccc1)NO [Vorinostat] (partner 1 µM) ?
Given back: 0.699

Asked: Also CCCCCCCCCCCC1=C(O)C(=O)C=C(O)C1=O [Embelin] + O=C(c1cc(Cc2n[nH]c(=O)c3ccccc23)ccc1F)N1CCN(C(=O)C2CC2)CC1 [Olaparib] (partner 8 µM) ?
Given back: 1.21

Asked: Also CCCCCCCCCCCC1=C(O)C(=O)C=C(O)C1=O [Embelin] + Nc1nc2[nH]cc(CCc3ccc(C(=O)N[C@@H](CCC(=O)O)C(=O)O)cc3)c2c(=O)[nH]1 [Pemetrexed] (partner 0.2 µM) ?
Given back: 0.662
